# Tested on: HeLa Kyoto
# assay_explanation: solubility change mitosis vs G1/S (difference of NP-40 vs SDS log2 ratios) (log2 ratio difference); higher = more soluble in mitosis
endpoint: solubility change mitosis (log2)
Kindly provide the number alone.

Find the measured solubility change mitosis (log2) of MDMKRRIHLELRNRTPAAVRELVLDNCKSNDGKIEGLTAEFVNLEFLSLINVGLISVSNLPKLPKLKKLELSENRIFGGLDMLAEKLPNLTHLNLSGNKLKDISTLEPLKKLECLKSLDLFNCEVTNLNDYRESVFKLLPQLTYLDGYDREDQEAPDSDAEVDGVDEEEEDEEGEDEEDEDDEDGEEEEFDEEDDEDEDVEGDEDDDEVSEEEEEFGLDEEDEDEDEDEEEEEGGKGEKRKRETDDEGEDD [ANP32B] with HeLa Kyoto as test system. 0.205

Recall the reported solubility change mitosis (log2) of MDPAARVVRALWPGGCALAWRLGGRPQPLLPTQSRAGFAGAAGGPSPVAAARKGSPRLLGAAALALGGALGLYHTARWHLRAQDLHAERSAAQLSLSSRLQLTLYQYKTCPFCSKVRAFLDFHALPYQVVEVNPVRRAEIKFSSYRKVPILVAQEGESSQQLNDSSVIISALKTYLVSGQPLEEIITYYPAMKAVNEQGKEVTEFGNKYWLMLNEKEAQQVYGGKEARTEEMKWRQWADDWLVHLISPNVYRTPTEALASFDYIVREGKFGAVEGAVAKYMGAAAMYLISKRLKSRHRLQDNVREDLYEAADKWVAAVGKDRPFMGGQKPNLADLAVYGVLRVMEGLDAFDDLMQHTHIQPWYLRVERAITEASPAH [PTGES2] on HeLa Kyoto and write it down. -0.0374

Look up and report measured solubility change mitosis (log2) (HeLa Kyoto) for the following sequence: MAGPLRAPLLLLAILAVALAVSPAAGSSPGKPPRLVGGPMDASVEEEGVRRALDFAVGEYNKASNDMYHSRALQVVRARKQIVAGVNYFLDVELGRTTCTKTQPNLDNCPFHDQPHLKRKAFCSFQIYAVPWQGTMTLSKSTCQDA [CST3] 0.378

###

Hi there, I'd appreciate the recorded thermal stability score for every entry that follows.
# Test system: HeLa Kyoto
# assay_explanation: thermal stability score vs G1/S (z-score of summed log2 fold changes over temperatures); higher = more thermally stable than in G1/S
# experimental_parameters: cell cycle stage: mitosis
Output: the number by itself.

Answer with thermal stability score of MGKIALQLKATLENITNLRPVGEDFRWYLKMKCGNCGEISDKWQYIRLMDSVALKGGRGSASMVQKCKLCARENSIEILSSTIKPYNAEDNENFKTIVEFECRGLEPVDFQPQAGFAAEGVESGTAFSDINLQEKDWTDYDEKAQESVGIYEVTHQFVKC [C1ORF123] measured for HeLa Kyoto. 0.084

Output reported thermal stability score of the sequence MAARRGALIVLEGVDRAGKSTQSRKLVEALCAAGHRAELLRFPERSTEIGKLLSSYLQKKSDVEDHSVHLLFSANRWEQVPLIKEKLSQGVTLVVDRYAFSGVAFTGAKENFSLDWCKQPDVGLPKPDLVLFLQLQLADAAKRGAFGHERYENGAFQERALRCFHQLMKDTTLNWKMVDASKSIEAVHEDIRVLSEDAIRTATEKPLGELWK [DTYMK] on HeLa Kyoto. -6.57

Param request: thermal stability score | system HeLa Kyoto | item MWGACKVKVHDSLATISITLRRYLRLGATMAKSKFEYVRDFEADDTCLAHCWVVVRLDGRNFHRFAEKHNFAKPNDSRALQLMTKCAQTVMEELEDIVIAYGQSDEYSFVFKRKTNWFKRRASKFMTHVASQFASSYVFYWRDYFEDQPLLYPPGFDGRVVVYPSNQTLKDYLSWRQADCHINNLYNTVFWALIQQSGLTPVQAQGRLQGTLAADKNEILFSEFNINYNNELPMYRKGTVLIWQKVDEVMTKEIKLPTEMEGKKMAVTRTRTKPVPLHCDIIGDAFWKEHPEILDEDS [THG1L] -0.354
